# Test system: carboxylate esterase
# assay name: Half life period in the absence or presence of pig liver carboxylate esterase at 25 degrees C in aqueous solution of C + esterase (20-fold unit equiv)
# Type: ADME
measurement kind: half-life (s)
Give just the number in s; leave the unit off.

Form: compound = COc1cccc2c1C(=O)c1c(O)c3c(c(O)c1C2=O)CC(O)(C(=O)CO)CC3OC1CC(NCCCCC(OC(C)=O)OC(C)=O)C(O)C(C)O1.Cl (stereo unspecified) ; half-life = 20

====

# Test system: carboxylate esterase
# assay name: Half life period in the absence or presence of pig liver carboxylate esterase at 25 degrees C in aqueous solution of C + esterase (2-fold unit equiv)
# Format: ADME
measurement kind: half-life (min)
Give just the number in min; leave the unit off.

Form: compound = COc1cccc2c1C(=O)c1c(O)c3c(c(O)c1C2=O)CC(O)(C(=O)CO)CC3OC1CC(NCCCCC(OC(C)=O)OC(C)=O)C(O)C(C)O1.Cl (stereo unspecified) ; half-life = 27

====

# Test system: CHO
# assay name: The compound was tested in vitro for growth inhibition of Chinese Hamster Ovary(CHO) cells
# Format: functional, cell-based
# conditions: Cricetulus griseus
measurement kind: IC50 (nM)
Give just the number in nM; leave the unit off.

Form: molecule = CCCCCNC1CC(OC2CC(O)(C(=O)CO)Cc3c(O)c4c(c(O)c32)C(=O)c2c(OC)cccc2C4=O)OC(C)C1O (centres undefined) ; IC50 = 57

Form: molecule = COc1cccc2c1C(=O)c1c(O)c3c(c(O)c1C2=O)CC(O)(C(=O)CO)CC3OC1CC(NCCCCC(OC(C)=O)OC(C)=O)C(O)C(C)O1.Cl (centres undefined) ; IC50 = 0.4

Form: molecule = COc1cccc2c1C(=O)c1c(O)c3c(c(O)c1C2=O)C[C@@](O)(C(=O)CO)C[C@@H]3O[C@H]1C[C@H](N)[C@H](O)[C@H](C)O1 ; IC50 = 60

Form: molecule = COc1cccc2c1C(=O)c1c(O)c3c(c(O)c1C2=O)CC(O)(C(=O)CO)CC3OC1CC(NCCCCCOC(C)=O)C(O)C(C)O1 (centres undefined) ; IC50 = 83

====

# System: carboxylate esterase
# assay name: Half life period in the absence or presence of pig liver carboxylate esterase at 25 degrees C in aqueous solution of C + esterase (10-fold unit equiv)
# Format: ADME
measurement kind: half-life (min)
Give just the number in min; leave the unit off.

Sample COc1cccc2c1C(=O)c1c(O)c3c(c(O)c1C2=O)CC(O)(C(=O)CO)CC3OC1CC(NCCCCC(OC(C)=O)OC(C)=O)C(O)C(C)O1.Cl (stereo unspecified) , system: carboxylate esterase. Its half-life is 1

====

# Test system: carboxylate esterase
# assay name: Half life period in the absence or presence of pig liver carboxylate esterase at 25 degrees C in aqueous solution of C + esterase (5-fold unit equiv)
# Format: ADME
measurement kind: half-life (min)
Give just the number in min; leave the unit off.

Sample COc1cccc2c1C(=O)c1c(O)c3c(c(O)c1C2=O)CC(O)(C(=O)CO)CC3OC1CC(NCCCCC(OC(C)=O)OC(C)=O)C(O)C(C)O1.Cl (stereo unspecified) , system: carboxylate esterase. Its half-life is 4
